- Assay name: chemical genetic growth profiling, strain panel (AID 1159580);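 also: tested at 20 µM; growth read once vehicle control cultures reached saturation at 30 °C; 1 = growth at the plate median or of vehicle wells; lower values mean less growth of the strain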
- Reported conditions: S. cerevisiae deletion strains, growth OD, locus YIL073C, strain SPO22, active compounds read low
In all, about 5,500 compounds went through this assay and about 2,000 (36%) were called active. Roughly 18% stayed inconclusive and do not appear here. Some of the results follow.
Experimental readout: normalized growth

Reference set, count: 2
Oc1cccc(O)c1 | 0.993 (inactive)
NNCc1cccc(O)c1 | 0.92 (inactive)

Moving on to the next molecule.
I would be grateful if you could share the reported normalized growth for O=C1NC(O)=NC1(c1ccccc1)c1ccccc1 . 1.03 (inactive)

----------
For each entry below, report its normalized growth value.
- Assay name: chemical genetic growth profiling, strain panel (AID 1159580);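 also: tested at 20 µM; growth read once vehicle control cultures reached saturation at 30 °C; 1 = growth at the plate median or of vehicle wells; lower values mean less growth of the strain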
- Reported conditions: S. cerevisiae deletion strains, growth OD, locus YGL227W, strain vid30, active compounds read low
The campaign covered roughly 5,500 compounds. About 2,000 (36%) were called active. Roughly 18% stayed inconclusive and do not appear here. This is one part of the list.
Numbers only.

CC[N+](C)(C)c1cccc(O)c1 | 1.02

For every listed record, write down its normalized growth.
1. CC1(C)CC2C1CC[C@]1(CBr)CCC3C(CC(=O)O)C(=O)O[C@@]32C1 (stereo partly specified)
2. CC(CCC(=O)O)[C@H]1CCC2C3C(=O)C[C@@H]4CC(=O)CC[C@]4(C)C3CC(=O)[C@@]21C (stereo partly specified)
3. CC(C)=CC1C(C(=O)O)C1(C)C (stereo unspecified)
4. CC(CCC(=O)O)[C@H]1CCC2C3CC[C@@H]4C[C@H](O)CC[C@]4(C)C3C=C[C@@]21C (stereo partly specified)
5. NCC(=O)c1ccccc1
6. NS(=O)(=O)c1cc2c(cc1Cl)NC(CSCc1ccccc1)=NS2(=O)=O
7. C[C@H](CCC(=O)O)[C@H]1CCC2C3C(=O)CC4CC(=O)CC[C@]4(C)C3CC(=O)[C@@]21C (stereo partly specified)
8. C/C=C\C1=C(C(=O)O)N2C(=O)C(NC(=O)C(N)c3ccc(O)cc3)C2SC1 (stereo unspecified)

[1.02, 0.985, 0.968, 1.03, 1.01, 1.02, 0.97, 1.01]

For every listed record, write down its normalized growth.
1. CNNC
2. O=C(OCc1ccccc1)c1ccccc1

1.01
0.96
